measurementNotes: Long-term/accelerated stability study (sealed in aluminum foil bags, 25° C./60% RH and 40° C./75% RH)
Format: physicochemical
appliedConditions: 40° C.-75% RH, sealed aluminum foil bag, 3 months
readoutKind: Purity (%)

Name the recorded Purity (%) of the molecule listed here: Br.[2H]C([2H])([2H])Oc1cc(C#N)ccc1[C@@H]1C(C(N)=O)=C(C)Nc2c(C)cnc(OCC)c21 [crystal form I of hydrobromide]
97.9

Name the recorded Purity (%) of the molecule listed here: O=S(=O)(O)O.[2H]C([2H])([2H])Oc1cc(C#N)ccc1[C@@H]1C(C(N)=O)=C(C)Nc2c(C)cnc(OCC)c21 [crystal form a of sulfate]
99.6

Name the recorded Purity (%) of the molecule listed here: O=C(O)/C=C\C(=O)O.[2H]C([2H])([2H])Oc1cc(C#N)ccc1[C@@H]1C(C(N)=O)=C(C)Nc2c(C)cnc(OCC)c21 [crystal form α of maleate]
99.3

Name the recorded Purity (%) of the molecule listed here: Cl.[2H]C([2H])([2H])Oc1cc(C#N)ccc1[C@@H]1C(C(N)=O)=C(C)Nc2c(C)cnc(OCC)c21 [crystal form I of hydrochloride]
98.8

###

measurementNotes: Long-term/accelerated stability study (sealed in aluminum foil bags, 25° C./60% RH and 40° C./75% RH)
Format: physicochemical
appliedConditions: 25° C.-60% RH, sealed aluminum foil bag, 3 months
readoutKind: Purity (%)

Name the recorded Purity (%) of the compound listed here: Cl.[2H]C([2H])([2H])Oc1cc(C#N)ccc1[C@@H]1C(C(N)=O)=C(C)Nc2c(C)cnc(OCC)c21 [crystal form I of hydrochloride]
99.3

Name the recorded Purity (%) of the compound listed here: O=C(O)/C=C\C(=O)O.[2H]C([2H])([2H])Oc1cc(C#N)ccc1[C@@H]1C(C(N)=O)=C(C)Nc2c(C)cnc(OCC)c21 [crystal form α of maleate]
99.8

Name the recorded Purity (%) of the compound listed here: Br.[2H]C([2H])([2H])Oc1cc(C#N)ccc1[C@@H]1C(C(N)=O)=C(C)Nc2c(C)cnc(OCC)c21 [crystal form I of hydrobromide]
99.7

Name the recorded Purity (%) of the compound listed here: O=S(=O)(O)O.[2H]C([2H])([2H])Oc1cc(C#N)ccc1[C@@H]1C(C(N)=O)=C(C)Nc2c(C)cnc(OCC)c21 [crystal form a of sulfate]
99.8

###

measurementNotes: Influencing factor stability study (open containers; light, high temperature, high humidity; 30 days)
Type: physicochemical
appliedConditions: open container, light exposure (4500 Lux), 7 days
readoutKind: Crystal form

Name the recorded Crystal form of the molecule listed here: Br.[2H]C([2H])([2H])Oc1cc(C#N)ccc1[C@@H]1C(C(N)=O)=C(C)Nc2c(C)cnc(OCC)c21 [crystal form I of hydrobromide]
No change

Name the recorded Crystal form of the molecule listed here: [2H]C([2H])([2H])Oc1cc(C#N)ccc1[C@@H]1C(C(N)=O)=C(C)Nc2c(C)cnc(OCC)c21 [crystal form A]
No change

Name the recorded Crystal form of the molecule listed here: O=S(=O)(O)O.[2H]C([2H])([2H])Oc1cc(C#N)ccc1[C@@H]1C(C(N)=O)=C(C)Nc2c(C)cnc(OCC)c21 [crystal form a of sulfate]
No change

Name the recorded Crystal form of the molecule listed here: O=C(O)/C=C\C(=O)O.[2H]C([2H])([2H])Oc1cc(C#N)ccc1[C@@H]1C(C(N)=O)=C(C)Nc2c(C)cnc(OCC)c21 [crystal form α of maleate]
No change
